Values compiled from patent US7687490B2.

For each record, write down the corresponding MIC.
system: S. aureus 209P JC-1; test: Antimicrobial activity, MIC (Test Example 1); type: cell-based; conditions: Staphylococcus aureus, Sensitivity Disk agar-N+5% Horse blood, inoculants 10^6 CFU/ml, read-out: minimum inhibitory concentrations (MIC)
Numeric answer only, unit µg/mL assumed.

// query # MIC lookup, item `C[C@@H](O)[C@H]1C(=O)N2C(C(=O)[O-])=C(S/C=C\c3ncsc3CO)[C@H](C)[C@H]12.[Na+]`
// result 0.031

// query # MIC lookup, item C[C@@H](O)[C@H]1C(=O)N2C(C(=O)O)=C(SCCN=CN)C[C@H]12 [IPM, imipenem, reference compound]
// result 0.016

// query # MIC lookup, item `C[C@@H](O)[C@H]1C(=O)N2C(C(=O)[O-])=C(S/C=C\c3nc(CO)cs3)[C@H](C)[C@H]12.[Na+]`
// result 0.031

// query # MIC lookup, item `C[C@@H](O)[C@H]1C(=O)N2C(C(=O)[O-])=C(S/C=C\c3scnc3CO)[C@H](C)[C@H]12.[Na+]`
// result 0.031

// query # MIC lookup, item `C[C@@H](O)[C@H]1C(=O)N2C(C(=O)[O-])=C(S/C=C/c3scnc3CO)[C@H](C)[C@H]12.[Na+]`
// result 0.063

###

system: E. coli W4680; test: Antimicrobial activity, MIC (Test Example 1); format: cell-based; conditions: Escherichia coli, Sensitivity Disk agar-N+5% Horse blood, inoculants 10^6 CFU/ml, read-out: minimum inhibitory concentrations (MIC)
For each record, write down the corresponding MIC.
Numeric answer only, unit µg/mL assumed.

// query Lab request: please report MIC under test system E. coli W4680 for `C[C@@H](O)[C@H]1C(=O)N2C(C(=O)[O-])=C(S/C=C\c3scnc3CO)[C@H](C)[C@H]12.[Na+]`
// result 1

// query Lab request: please report MIC under test system E. coli W4680 for `C[C@@H](O)[C@H]1C(=O)N2C(C(=O)[O-])=C(S/C=C\c3ncsc3CO)[C@H](C)[C@H]12.[Na+]`
// result 8

// query Lab request: please report MIC under test system E. coli W4680 for C[C@@H](O)[C@H]1C(=O)N2C(C(=O)O)=C(SCCN=CN)C[C@H]12 [IPM, imipenem, reference compound]
// result 0.125

// query Lab request: please report MIC under test system E. coli W4680 for `C[C@@H](O)[C@H]1C(=O)N2C(C(=O)[O-])=C(S/C=C/c3scnc3CO)[C@H](C)[C@H]12.[Na+]`
// result 8

// query Lab request: please report MIC under test system E. coli W4680 for `C[C@@H](O)[C@H]1C(=O)N2C(C(=O)[O-])=C(S/C=C\c3nc(CO)cs3)[C@H](C)[C@H]12.[Na+]`
// result 4

###

test system: S. pneumoniae 197; experiment: Antimicrobial activity, MIC (Test Example 1); format: cell-based; conditions: Streptococcus pneumoniae, Sensitivity Disk agar-N+5% Horse blood, inoculants 10^6 CFU/ml, read-out: minimum inhibitory concentrations (MIC)
reported-metric: MIC (µg/mL)
Numeric answer only, unit µg/mL assumed.

// query # MIC lookup, item C[C@@H](O)[C@H]1C(=O)N2C(C(=O)O)=C(SCCN=CN)C[C@H]12 [IPM, imipenem, reference compound]
// result 1

// query # MIC lookup, item `C[C@@H](O)[C@H]1C(=O)N2C(C(=O)[O-])=C(S/C=C\c3ncsc3CO)[C@H](C)[C@H]12.[Na+]`
// result 0.25

// query # MIC lookup, item `C[C@@H](O)[C@H]1C(=O)N2C(C(=O)[O-])=C(S/C=C\c3nc(CO)cs3)[C@H](C)[C@H]12.[Na+]`
// result 0.25

// query # MIC lookup, item `C[C@@H](O)[C@H]1C(=O)N2C(C(=O)[O-])=C(S/C=C\c3scnc3CO)[C@H](C)[C@H]12.[Na+]`
// result 0.125

// query # MIC lookup, item `C[C@@H](O)[C@H]1C(=O)N2C(C(=O)[O-])=C(S/C=C/c3scnc3CO)[C@H](C)[C@H]12.[Na+]`
// result 1

###

system: H. influenzae PRC44; experiment: Antimicrobial activity, MIC (Test Example 1); format: cell-based; conditions: Haemophilus influenzae, Sensitivity Disk agar-N+5% Horse blood, inoculants 10^6 CFU/ml, read-out: minimum inhibitory concentrations (MIC)
For each record, write down the corresponding MIC.
Please answer in the form of a number followed by its unit of measurement.

// query # MIC lookup, item `C[C@@H](O)[C@H]1C(=O)N2C(C(=O)[O-])=C(S/C=C/c3scnc3CO)[C@H](C)[C@H]12.[Na+]`
// result 0.125 µg/mL

// query # MIC lookup, item `C[C@@H](O)[C@H]1C(=O)N2C(C(=O)[O-])=C(S/C=C\c3nc(CO)cs3)[C@H](C)[C@H]12.[Na+]`
// result 0.063 µg/mL

// query # MIC lookup, item `C[C@@H](O)[C@H]1C(=O)N2C(C(=O)[O-])=C(S/C=C\c3scnc3CO)[C@H](C)[C@H]12.[Na+]`
// result 0.125 µg/mL

// query # MIC lookup, item C[C@@H](O)[C@H]1C(=O)N2C(C(=O)O)=C(SCCN=CN)C[C@H]12 [IPM, imipenem, reference compound]
// result 16 µg/mL

// query # MIC lookup, item `C[C@@H](O)[C@H]1C(=O)N2C(C(=O)[O-])=C(S/C=C\c3ncsc3CO)[C@H](C)[C@H]12.[Na+]`
// result 0.063 µg/mL

###

test system: K. pneumoniae GN69; assay: Antimicrobial activity, MIC (Test Example 1); format: cell-based; details: Klebsiella pneumoniae, Sensitivity Disk agar-N+5% Horse blood, inoculants 10^6 CFU/ml, read-out: minimum inhibitory concentrations (MIC)
For each record, write down the corresponding MIC.
Numeric answer only, unit µg/mL assumed.

// query # MIC lookup, item `C[C@@H](O)[C@H]1C(=O)N2C(C(=O)[O-])=C(S/C=C\c3scnc3CO)[C@H](C)[C@H]12.[Na+]`
// result 0.5

// query # MIC lookup, item `C[C@@H](O)[C@H]1C(=O)N2C(C(=O)[O-])=C(S/C=C\c3nc(CO)cs3)[C@H](C)[C@H]12.[Na+]`
// result 4

// query # MIC lookup, item C[C@@H](O)[C@H]1C(=O)N2C(C(=O)O)=C(SCCN=CN)C[C@H]12 [IPM, imipenem, reference compound]
// result 0.125

// query # MIC lookup, item `C[C@@H](O)[C@H]1C(=O)N2C(C(=O)[O-])=C(S/C=C/c3scnc3CO)[C@H](C)[C@H]12.[Na+]`
// result 8

// query # MIC lookup, item `C[C@@H](O)[C@H]1C(=O)N2C(C(=O)[O-])=C(S/C=C\c3ncsc3CO)[C@H](C)[C@H]12.[Na+]`
// result 8
